Tested on: oat, wild (wild oat, Avena fatua)
Assay: Test D controlled growth environment herbicide test, pre- and postemergence
Type: in vivo
Details: Postemergence, 250 g ai/ha; scale 0 to 100 (0 no effect, 100 complete control)
Entries and their Plant response rating, Oat, Wild values follow.
observed-property: Plant response rating, Oat, Wild

>>> recorded_number("Cc1ccc(-c2c(O)c(Br)nn(C)c2=O)c2ccccc12 [Compound 52]")
15
>>> recorded_number("Cc1ccc2ccccc2c1-c1c(O)c(C)nn(C)c1=O [Compound 59]")
98
>>> recorded_number("CCOC(=O)Oc1c(C)nn(C)c(=O)c1-c1c(C)sc2c(C)cc(C)cc12 [Compound 83]")
95
>>> recorded_number("COc1nn(C)c(=O)c(-c2c(C)ccc3ccccc23)c1OC(=O)OC(C)C [Compound 36]")
95
>>> recorded_number("CC(=O)Oc1c(Br)nn(C)c(=O)c1-c1c(C)ccc2ccccc12 [Compound 129]")
100
>>> recorded_number("Cc1cc(C)c2sc(C)c(-c3c(OC(=O)OCCCl)c(C)nn(C)c3=O)c2c1 [Compound 85]")
100
>>> recorded_number("CC(=O)Oc1c(C)nn(C)c(=O)c1-c1c(C)sc2ccc(C)cc12 [Compound 25]")
90

* * *

Tested on: pigweed, palmer (palmer pigweed, Amaranthus palmeri)
Assay: Test E greenhouse herbicide test, pre- and postemergence
Assay type: in vivo
Conditions: 62 g ai/ha, Preemergence; scale 0 to 100 (0 no effect, 100 complete control)
Entries and their Plant response rating, Pigweed, Palmer values follow.
observed-property: Plant response rating, Pigweed, Palmer

>>> result("CCOC(=O)Oc1c(C)nn(C)c(=O)c1-c1c(CC)ccc2ccccc12")
90
>>> result("CC(=O)Oc1c(C)nn(C)c(=O)c1-c1c(C)sc2c(C)cc(C)cc12")
60
>>> result("CCOC(=O)Oc1c(C)nn(C)c(=O)c1-c1c(C)sc2c(C)cc(C)cc12")
20
>>> result("C#CCOC(=O)Oc1c(C)nn(C)c(=O)c1-c1c(C)sc2ccc(C)cc12")
65
>>> result("Cc1ccc2sc(C)c(-c3c(O)c(C)nn(C)c3=O)c2c1")
100
>>> result("CC(=O)Oc1c(C)nn(C)c(=O)c1-c1c(C)sc2ccc(C)cc12")
90

* * *

Tested on: oilseed rape (Brassica napus)
Assay: Test D controlled growth environment herbicide test, pre- and postemergence
Assay type: in vivo
Conditions: Preemergence, 125 g ai/ha; scale 0 to 100 (0 no effect, 100 complete control)
Source text: […]
# note: exactly 10 is not below, so it is no (0); use yes (1) for Plant response rating, Oilseed Rape strictly under it

>>> class_name("COc1nn(C)c(=O)c(-c2c(C)ccc3ccccc23)c1OC(=O)OC(C)C")
"no (0)"
>>> class_name("Cc1nn(C)c(=O)c(-c2c(C)sc3ccc(Cl)cc23)c1O")
"no (0)"
>>> class_name("Cc1ccc(-c2c(O)c(Br)nn(C)c2=O)c2ccccc12")
"yes (1)"
>>> class_name("Cc1ccc2sc(C)c(-c3c(O)c(C)nn(C)c3=O)c2c1")
"yes (1)"
>>> class_name("CC(=O)Oc1c(C)nn(C)c(=O)c1-c1ccc(F)c2ccccc12")
"yes (1)"
>>> class_name("Cc1ccc2ccc(C)c(-c3c(O)c(C)nn(C)c3=O)c2c1")
"no (0)"
>>> class_name("CCOC(=O)Oc1c(C)nn(C)c(=O)c1-c1c(C)ccc2ccccc12")
"yes (1)"
>>> class_name("CCC(=O)Oc1c(C)nn(C)c(=O)c1-c1c(C)sc2ccc(C)cc12")
"yes (1)"
>>> class_name("Cc1cc(C)c2sc(C)c(-c3c(OC(=O)OC(C)C)c(C)nn(C)c3=O)c2c1")
"no (0)"

* * *

Tested on: pigweed (Amaranthus retroflexus)
Assay: Test C greenhouse herbicide test, pre- and postemergence
Format: in vivo
Conditions: postemergence, 62 g ai/ha; scale 0 to 100, 0 no effect, 100 complete control
From the text: […]
observed-property: Pigweed plant response rating

>>> recorded_number("COc1nn(C)c(=O)c(-c2c(C)sc3ccc(Cl)cc23)c1O [Compound 100]")
85
>>> recorded_number("CC(=O)Oc1c(C#N)nn(C)c(=O)c1-c1c(C)ccc2ccccc12 [Compound 98]")
100
>>> recorded_number("CCC(=O)Oc1c(C)nn(C)c(=O)c1-c1c(C)sc2ccc(C)cc12 [Compound 42]")
95
>>> recorded_number("COc1nn(C)c(=O)c(-c2c(C)ccc3ccccc23)c1O [Compound 54]")
95
>>> recorded_number("Cc1cc(C)c2sc(C)c(-c3c(OC(=O)OC(C)C)c(C)nn(C)c3=O)c2c1 [Compound 67]")
85
>>> recorded_number("CC(=O)Oc1c(C)nn(C)c(=O)c1-c1c(C)oc2ccc(C)cc12 [Compound 14]")
70

* * *

Test system: corn (Zea mays)
Experiment: Test A greenhouse herbicide test, pre- and postemergence
Type: in vivo
Conditions: Postemergence, 125 g ai/ha; 0 to 100 scale where 0 is no effect and 100 is complete control
observed-property: Plant response rating, Corn

>>> recorded_number("Cc1nn(C)c(=O)c(-c2ccc(F)c3ccccc23)c1OC(=O)CC(F)(F)F")
0
>>> recorded_number("Cc1nn(C)c(=O)c(-c2c(C)sc3ccc(Cl)cc23)c1O")
0
>>> recorded_number("Cc1ccc(-c2c(O)c(Br)nn(C)c2=O)c2ccccc12")
0
>>> recorded_number("CCc1ccc2ccc(C)cc2c1-c1c(O)c(C)nn(C)c1=O")
20
>>> recorded_number("COC(=O)Oc1cnn(C)c(=O)c1-c1c(C)ccc2ccccc12")
0
>>> recorded_number("Cc1ccc2ccccc2c1-c1c(O)c(C)nn(C)c1=O")
20
>>> recorded_number("COC(=O)Oc1c(Br)nn(C)c(=O)c1-c1c(C)ccc2ccccc12")
30
>>> recorded_number("CC(=O)Oc1c(C)nn(C)c(=O)c1-c1c(C(F)(F)F)ccc2ccccc12")
0
>>> recorded_number("CCOC(=O)Oc1c(C)nn(C)c(=O)c1-c1c(C(F)(F)F)ccc2ccccc12")
0

* * *

System: barnyardgrass (Echinochloa crus-galli)
Experiment: Test E greenhouse herbicide test, pre- and postemergence
Type: in vivo
Details: Preemergence, 250 g ai/ha; visual, scale 0 no effect to 100 complete control
Entries and their Plant response rating, Barnyardgrass values follow.
observed-property: Plant response rating, Barnyardgrass

>>> result("COC(=O)Oc1c(C)nn(C)c(=O)c1-c1c(C)sc2c(C)cc(C)cc12 [Compound 81]")
75
>>> result("Cc1cc(C)c2sc(C)c(-c3c(OC(=O)OCCCl)c(C)nn(C)c3=O)c2c1 [Compound 85]")
35
>>> result("CCOC(=O)Oc1c(C)nn(C)c(=O)c1-c1c(C)sc2ccc(C)cc12 [Compound 82]")
40
>>> result("CCOC(=O)Oc1c(C)nn(C)c(=O)c1-c1c(CC)ccc2ccccc12 [Compound 37]")
30
>>> result("CCC(=O)Oc1c(C)nn(C)c(=O)c1-c1c(C)sc2c(C)cc(C)cc12 [Compound 28]")
90

* * *

Tested on: wheat, winter (winter wheat, Triticum aestivum)
Experiment: Test D controlled growth environment herbicide test, pre- and postemergence
Assay type: in vivo
Conditions: Preemergence, 250 g ai/ha; scale 0 to 100 (0 no effect, 100 complete control)
observed-property: Plant response rating, Wheat, Winter

>>> recorded_number("COC(=O)Oc1c(C)nn(C)c(=O)c1-c1c(C)sc2c(C)cc(C)cc12")
5
>>> recorded_number("Cc1ccc2ccc(C)c(-c3c(O)c(C)nn(C)c3=O)c2c1")
55
>>> recorded_number("COc1nn(C)c(=O)c(-c2c(C)ccc3ccccc23)c1O")
35
>>> recorded_number("CC(=O)Oc1c(C)nn(C)c(=O)c1-c1c(C)cc(C)c2ccccc12")
50
>>> recorded_number("CCOC(=O)Oc1c(C)nn(C)c(=O)c1-c1c(C)ccc2ccccc12")
75

* * *

Tested on: corn (Zea mays)
Experiment: Test C greenhouse herbicide test, pre- and postemergence
Assay type: in vivo
Conditions: Preemergence, 62 g ai/ha; scale 0 to 100, 0 is no effect, 100 is complete control
Excerpt: […]
Entries and their Plant response rating, Corn values follow.
observed-property: Plant response rating, Corn

>>> recorded_number("COC(=O)Oc1c(C)nn(C)c(=O)c1-c1c(C)sc2c(C)cc(C)cc12")
10
>>> recorded_number("CCOC(=O)Oc1c(C)nn(C)c(=O)c1-c1c(C)sc2ccc(C)cc12")
0
>>> recorded_number("CCC(=O)Oc1c(C)nn(C)c(=O)c1-c1ccc(Br)c2ccccc12")
5
>>> recorded_number("CC(=O)Oc1c(C)nn(C)c(=O)c1-c1c(C)cc(C)c2ccccc12")
0
>>> recorded_number("COc1nn(C)c(=O)c(-c2c(C)ccc3ccccc23)c1O")
10
>>> recorded_number("CCOC(=O)Oc1c(C)nn(C)c(=O)c1-c1c(CC)ccc2ccccc12")
0
>>> recorded_number("Cc1cc(C)c2ccccc2c1-c1c(OS(C)(=O)=O)c(C)nn(C)c1=O")
5
>>> recorded_number("CC(=O)Oc1c(Br)nn(C)c(=O)c1-c1c(C)ccc2ccccc12")
5
>>> recorded_number("Cc1ccc2ccccc2c1-c1c(O)c(C)nn(C)c1=O")
20
